Data provenance is ChEMBL document CHEMBL1275271.

LD50 values, listed per item
# Assay remarks: Toxicity in po dosed mouse
# Experimental parameters: in vivo
Measured metric: LD50 (mg/kg)

Cpd smiles: CCCN(CCC)c1c([N+](=O)[O-])cc(Sc2ccc(OC)cc2)cc1[N+](=O)[O-]
Measured metric: LD50
Recorded measurement: 1600
//
Cpd smiles: Cc1cc(NS(=O)(=O)c2c([N+](=O)[O-])cc([N+](=O)[O-])cc2C(F)(F)F)c(Cl)cc1Cl
Measured metric: LD50
Recorded measurement: 650
//
Cpd smiles: N#Cc1cc([N+](=O)[O-])c(S(=O)(=O)Nc2cccc(F)c2)c([N+](=O)[O-])c1
Measured metric: LD50
Recorded measurement: 1300
//
Cpd smiles: Cc1cc(S(=O)(=O)c2c([N+](=O)[O-])cc(C#N)cc2[N+](=O)[O-])c(Cl)cc1Cl
Measured metric: LD50
Recorded measurement: 1100
//
Cpd smiles: CCCN(CCC)c1c([N+](=O)[O-])cc(Sc2cc(C)c(Cl)cc2Cl)cc1[N+](=O)[O-]
Measured metric: LD50
Recorded measurement: 1800
//
Cpd smiles: COc1ccc(Sc2c([N+](=O)[O-])cc(C#N)cc2[N+](=O)[O-])cc1
Measured metric: LD50
Recorded measurement: 1100
//
Cpd smiles: O=[N+]([O-])c1cc([N+](=O)[O-])c(S(=O)(=O)Nc2cccc(F)c2)c(C(F)(F)F)c1
Measured metric: LD50
Recorded measurement: 880
//
Cpd smiles: CCCN(CCC)c1c([N+](=O)[O-])cc(S(N)(=O)=O)cc1[N+](=O)[O-]
Measured metric: LD50
Recorded measurement: 1600
//
Cpd smiles: O=[N+]([O-])c1cc(C(F)(F)F)cc([N+](=O)[O-])c1Sc1ccc(Cl)cc1Cl
Measured metric: LD50
Recorded measurement: 780
//
Cpd smiles: Cc1cc(S(=O)(=O)c2c([N+](=O)[O-])cc(C(F)(F)F)cc2[N+](=O)[O-])c(Cl)cc1Cl
Measured metric: LD50
Recorded measurement: 1800
